biological target: human ether-a-go-go-related gene (hERG) potassium channel (Homo sapiens)
Sequence (Q12809 whole entry): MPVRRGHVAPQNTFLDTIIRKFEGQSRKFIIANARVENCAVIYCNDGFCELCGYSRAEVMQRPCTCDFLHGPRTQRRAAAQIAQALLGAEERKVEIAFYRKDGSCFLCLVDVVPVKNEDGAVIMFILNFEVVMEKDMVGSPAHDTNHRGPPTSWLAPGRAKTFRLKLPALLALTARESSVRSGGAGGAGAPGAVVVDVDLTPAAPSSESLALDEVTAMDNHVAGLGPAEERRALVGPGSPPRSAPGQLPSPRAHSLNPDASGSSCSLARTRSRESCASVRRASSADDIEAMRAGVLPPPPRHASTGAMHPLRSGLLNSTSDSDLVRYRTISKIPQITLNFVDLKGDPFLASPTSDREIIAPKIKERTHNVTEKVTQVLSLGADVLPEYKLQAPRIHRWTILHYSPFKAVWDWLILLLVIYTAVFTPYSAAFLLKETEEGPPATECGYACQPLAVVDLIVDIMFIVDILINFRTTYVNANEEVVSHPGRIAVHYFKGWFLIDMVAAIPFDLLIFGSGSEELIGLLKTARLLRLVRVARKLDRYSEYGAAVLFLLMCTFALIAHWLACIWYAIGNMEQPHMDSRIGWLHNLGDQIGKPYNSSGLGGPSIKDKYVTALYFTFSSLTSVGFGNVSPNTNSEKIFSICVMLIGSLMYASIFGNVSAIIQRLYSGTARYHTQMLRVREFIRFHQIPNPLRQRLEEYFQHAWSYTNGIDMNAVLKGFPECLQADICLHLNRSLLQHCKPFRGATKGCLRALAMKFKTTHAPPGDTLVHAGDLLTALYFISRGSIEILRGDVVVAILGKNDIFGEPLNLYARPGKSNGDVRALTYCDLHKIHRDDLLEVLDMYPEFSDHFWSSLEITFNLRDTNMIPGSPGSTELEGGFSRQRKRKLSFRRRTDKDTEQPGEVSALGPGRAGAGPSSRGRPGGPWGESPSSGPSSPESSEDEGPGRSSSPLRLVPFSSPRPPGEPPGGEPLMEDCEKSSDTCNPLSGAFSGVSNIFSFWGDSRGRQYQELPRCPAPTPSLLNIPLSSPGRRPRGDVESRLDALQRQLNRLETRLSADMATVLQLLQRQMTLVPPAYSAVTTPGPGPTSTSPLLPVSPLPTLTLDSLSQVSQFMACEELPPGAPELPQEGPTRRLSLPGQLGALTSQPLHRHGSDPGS
MEASURED ATTRIBUTE: IC50 (µM)
Please state the figure in µM; there is no need to write the unit.

Query block: Look up and state reported IC50 for "O=C1Nc2cc3[nH]nc(-c4ccncc4)c3cc2CN1Cc1ccccc1"
Result block: 4.4

* * *

assay: Phase I plasma pharmacokinetics; type: in vivo, human; settings: human, plasma, intravenous
MEASURED ATTRIBUTE: half-life

Query block: Look up and state reported half-life for "O=C1Nc2cc3[nH]nc(-c4ccncc4)c3cc2CN1Cc1ccccc1"
Result block: 6.5 to 24 h

* * *

experiment: Phase I plasma pharmacokinetics; assay type: in vivo, human; details: human, plasma, intravenous, 3.6 mg/kg
MEASURED ATTRIBUTE: half-life

Query block: Look up and state reported half-life for O=C1Nc2cc3[nH]nc(-c4ccncc4)c3cc2CN1Cc1ccccc1 [KO-947]
Result block: ~6.65 h

* * *

experiment: Phase I plasma pharmacokinetics; type: in vivo, human; conditions: human, plasma, intravenous, 3.6 mg/kg, highest Cmax, 1-hour infusion
MEASURED ATTRIBUTE: Cmax

Query block: Look up and state reported Cmax for "O=C1Nc2cc3[nH]nc(-c4ccncc4)c3cc2CN1Cc1ccccc1"
Result block: 3630 ng/mL

Origin of values: paper PMC11904481
